# assay-system: human MET kinase L1195V (Homo sapiens, UniProt P08581, L1195V)
# Construct: GST-tagged recombinant human MET kinase domain
# Sequence (P08581 1078-1345 L1195V limits assumed): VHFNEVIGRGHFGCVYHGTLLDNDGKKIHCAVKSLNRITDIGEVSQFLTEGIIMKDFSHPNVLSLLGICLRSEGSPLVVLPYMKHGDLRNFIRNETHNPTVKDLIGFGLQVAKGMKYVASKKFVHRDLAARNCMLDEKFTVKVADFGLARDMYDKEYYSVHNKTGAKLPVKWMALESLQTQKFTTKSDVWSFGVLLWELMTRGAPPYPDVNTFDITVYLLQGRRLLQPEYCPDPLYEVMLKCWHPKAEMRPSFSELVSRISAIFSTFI
# protocol-text: c-Met Enzyme Assay, L1195V mutant
# experimental-context: averaged IC50; L1195V 10 nM; 60-minute incubation at 22° C.
In this section, each of the molecules is paired with its reported pIC50.
Formally, pIC50 is defined as -log10 of the concentration c, with c in mol/L.

COc1cc2nccc(Oc3ccc(NC(=O)c4cn(C5CCOCC5)cc(-c5ccc(F)cc5)c4=O)nc3)c2cc1OC ... 7.48
COc1cc2c(Oc3ccc(NC(=O)c4cn(C(C)C)cc(-c5ccc(F)cc5)c4=O)nc3)ccnc2cc1OCCCN1CCOCC1 ... 8.28
COc1cc2nccc(Oc3ccc(NC(=O)c4cn(CCC(C)C)cc(-c5ccc(Cl)cc5)c4=O)nc3)c2cc1OC ... 7.63
COc1cc2nccc(Oc3ccc(NC(=O)c4cn(C(C)C)c(C)c(-c5ccc(F)cc5)c4=O)nc3)c2cc1OC ... 8.54
CNC(=O)Cn1cc(C(=O)Nc2ccc(Oc3ccnc4cc(OC)c(OC)cc34)cn2)c(=O)c(-c2ccc(F)cc2)c1 ... 7.75

query: For CCn1cc(C(=O)Nc2ccc(Oc3ccnc4cc(OC)c(OC)cc34)cn2)c(=O)c(-c2ccc(F)cc2)c1 , write its pIC50.
result: 7.82

query: For COc1cc2nccc(Oc3cnc(NC(=O)c4cn(C(C)C)cc(-c5ccc(F)cc5)c4=O)nc3)c2cc1OC , write its pIC50.
result: 7.83

query: For COc1cc2nccc(Oc3ccc(NC(=O)c4cn(C(C)C)cc(-c5ccc(Cl)cc5)c4=O)nc3)c2cc1OC , write its pIC50.
result: 8.01

query: For CCOc1ccc2c(Oc3ccc(NC(=O)c4cn(C(C)C)cc(-c5ccc(F)cc5)c4=O)nc3)ccnc2c1 , write its pIC50.
result: 7.13

---

# assay-system: human MET kinase Y1230S (Homo sapiens, UniProt P08581, Y1230S)
# Construct: GST-tagged recombinant human MET kinase domain
# Sequence (P08581 1078-1345 Y1230S): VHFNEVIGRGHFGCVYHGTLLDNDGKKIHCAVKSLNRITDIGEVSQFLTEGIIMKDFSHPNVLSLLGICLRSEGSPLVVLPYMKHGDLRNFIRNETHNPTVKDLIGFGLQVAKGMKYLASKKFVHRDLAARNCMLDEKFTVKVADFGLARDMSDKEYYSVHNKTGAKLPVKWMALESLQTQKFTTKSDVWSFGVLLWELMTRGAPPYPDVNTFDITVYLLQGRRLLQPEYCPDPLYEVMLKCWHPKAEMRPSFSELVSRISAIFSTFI
# protocol-text: c-Met Enzyme Assay, Y1230S mutant
# experimental-context: averaged IC50; Y1230S 8 nM; 60-minute incubation at 22° C.; read-out: Y1230 S IC50
Consider the reported IC50 of an entry and match it to a band in low group = under 7 nM, middle group = from 7 nM up to 20 nM, high group = 20 nM and over

Example results:
COc1cc2c(Oc3ccc(NC(=O)c4cn(C(C)C)cc(-c5ccc(F)cc5)c4=O)nc3)ccnc2cc1F ... high group
COc1ccc2nccc(Oc3ccc(NC(=O)c4cn(C)cc(-c5ccc(F)cc5)c4=O)nc3)c2c1 ... high group
COc1cc2nccc(Oc3ccc(NC(=O)c4cn(C(C)C)cc(-c5ccc(Cl)cc5)c4=O)nc3)c2cc1OC ... low group
CC(C)n1cc(C(=O)Nc2ccc(Oc3ccnc4cc(OC(F)(F)F)ccc34)cn2)c(=O)c(-c2ccc(F)cc2)c1 ... high group
COc1cc2c(Oc3ccc(NC(=O)c4cn(C(C)C)c(C)c(-c5ccc(F)cc5)c4=O)nc3)ccnc2cc1F ... middle group
COc1cc2nccc(Oc3ccc(NC(=O)c4cn(CCC(C)C)cc(-c5ccc(Cl)cc5)c4=O)nc3)c2cc1OC ... middle group
COc1cc2nccc(Oc3ccc(NC(=O)c4cn(CC(=O)N(C)C)cc(-c5ccc(Cl)cc5)c4=O)nc3)c2cc1OC ... middle group
COc1cc2nccc(Oc3ccc(NC(=O)c4cn(CC(=O)N(C)C)cc(-c5ccc(F)c(F)c5)c4=O)nc3)c2cc1OC ... middle group

query: Please report the category associated with COc1cc2nccc(Oc3ccc(NC(=O)c4cn(C)c(C(C)C)c(-c5ccc(F)cc5)c4=O)nc3)c2cc1OC , nothing else.
result: low group

query: Please report the category associated with COc1cc2nccc(Oc3ccc(NC(=O)c4cn(C)cc(-c5ccc(F)cc5)c4=O)nc3)c2cc1OC , nothing else.
result: middle group

query: Please report the category associated with COc1cc2nccc(Oc3ccc(NC(=O)c4cn(C(C)C)c(C)c(-c5ccc(F)c(F)c5)c4=O)nc3)c2cc1OC , nothing else.
result: low group

query: Please report the category associated with COc1cc2nccc(Oc3ccc(NC(=O)c4cn(C(C)C)c(C)c(-c5ccc(F)cc5)c4=O)nc3)c2cc1OC , nothing else.
result: low group

query: Please report the category associated with COc1ccc(-c2cn(C(C)C)cc(C(=O)Nc3ccc(Oc4ccnc5cc(OC)c(OC)cc45)cn3)c2=O)cc1 , nothing else.
result: high group
